- TESTED SYSTEM: UniProt:P32245
- PROTOCOL DETAILS: Displacement of [125I]NDP-MSH from human recombinant MC4 receptor expressed in Sf9 cells
pKi: −log10 of the molar value.
METRIC NAME: pKi

MOLECULE | METRIC NAME | NUMERIC VALUE
NCCCCCN(Cc1ccc2ccccc2c1)C(=O)Cc1c[nH]c2ccccc12 | pKi | 4.89
NCCN(C(=O)CCCc1c[nH]c2ccccc12)C1CCC2(CCCCC2)CC1 | pKi | 5.00
CSc1ccc(CN(C(=O)CCCc2c[nH]c3ccccc23)C2CCC(CC3CCC(N)CC3)CC2)cc1 (stereo not given) | pKi | 5.37

[a] N#Cc1ccc(CN(C(=O)CCCc2c[nH]c3ccccc23)C2CCC(CC3CCC(N)CC3)CC2)cc1 (stereo in doubt; form 1)
[b] NCCCN(C(=O)Cc1c[nH]c2ccccc12)C1CCc2ccccc2C1 (stereo not given)
[in] Of a and b , whose reported pKi is numerically smaller? Choose, then provide that item's label.
[out] b

====

- TESTED SYSTEM: Melanocyte-stimulating hormone receptor (Mus musculus)
- Sequence (Q01727 whole entry): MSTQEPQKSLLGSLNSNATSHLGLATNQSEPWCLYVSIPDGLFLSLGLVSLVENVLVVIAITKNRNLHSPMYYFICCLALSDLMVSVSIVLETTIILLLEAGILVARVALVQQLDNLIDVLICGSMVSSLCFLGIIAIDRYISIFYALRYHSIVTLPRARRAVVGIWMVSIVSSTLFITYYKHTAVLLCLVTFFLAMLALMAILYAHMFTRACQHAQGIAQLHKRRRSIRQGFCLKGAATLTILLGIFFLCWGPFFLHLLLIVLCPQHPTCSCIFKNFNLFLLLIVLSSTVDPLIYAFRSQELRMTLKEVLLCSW
- PROTOCOL DETAILS: Displacement of [125I]NDP-MSH from MC1 receptor in mouse B16 cells
- Type: cell-based
METRIC NAME: Ki (nM)

Before answering, review these 5 worked examples.
COMPOUND | Ki / nM
NCCN(Cc1ccc2ccccc2c1)C(=O)c1c[nH]c2ccccc12 | 3600
NC1CCCC(N(Cc2ccccc2)C(=O)CCCc2c[nH]c3ccccc23)C1 (stereo unspecified) | 3300
N=C(N)NC1CCC(CC2CCC(N(Cc3ccccc3)C(=O)CCCc3c[nH]c4ccccc34)CC2)CC1 (stereo unspecified) | 1500
COc1ccc(CN(C(=O)CCCc2c(Cc3ccc(O)cc3)[nH]c3ccccc23)C2CCC(CC3CCC(N)CC3)CC2)cc1Br (stereo unspecified) | 2600
NC1CCC(CC2CCC(N(C/C(Cl)=C/c3ccccc3)C(=O)CCCc3c[nH]c4ccccc34)CC2)CC1 (stereo in doubt; form 2) | 960

[A] CCCCCN(Cc1ccc(N(CC)CC)cc1)C(=O)CCCc1c[nH]c2ccccc12
[B] NCCCN(C(=O)c1cc2cc(OCc3ccccc3)ccc2[nH]1)C1CCc2ccccc2C1 (stereo unspecified)
[in] Between A and B , which one shows the smaller Ki number? Give the label under which the chosen entry appears.
[out] B

[a] CC(c1ccc(C(F)(F)F)cc1)N(CCCCCN)C(=O)Cc1c[nH]c2ccccc12 (stereo unspecified)
[b] NCCCCN(Cc1ccc2ccccc2c1)C(=O)Cc1c[nH]c2ccccc12
[c] NCc1ccc(CN(Cc2ccc3ccccc3c2)C(=O)CCCc2c[nH]c3ccccc23)cc1
[d] NCc1cccc(CN(Cc2ccc3ccccc3c2)C(=O)CCCc2c[nH]c3ccccc23)c1
[in] Arrange by Ki, high to low. # list labels per requested ordering
[out] b, c, a, d
(b: 15000 nM, c: 4000 nM, a: 2600 nM, d: 1500 nM)

[A] NC1CCC(CC2CCC(N(C/C(Cl)=C/c3ccccc3)C(=O)COc3ccc4ccccc4c3)CC2)CC1 (stereo in doubt; form 6)
[B] NC1CCCC(N(C/C(Cl)=C/c2ccccc2)C(=O)CCCc2c[nH]c3ccccc23)C1 (stereo unspecified)
[C] NC1CCC(CC2CCC(N(Cc3ccccn3)C(=O)CCCc3c[nH]c4ccccc34)CC2)CC1 (stereo unspecified)
[D] N=C(N)NCCN(Cc1ccc2ccccc2c1)C(=O)CCc1c[nH]c2ccccc12
[in] Exam item: list the entries in increasing order of Ki. When ranking, write the labels in the order the request describes.
[out] A, B, C, D

[a] NCC1CCCC(CN(Cc2ccccc2)C(=O)CCCc2c[nH]c3ccccc23)C1 (stereo unspecified)
[b] NC1CCC(CC2CCC(N(Cc3ccccc3)C(=O)CCCc3c[nH]c4ccccc34)CC2)CC1 (stereo in doubt)
[in] Exercise: compare a and b ; which one has the greater Ki? Identify your selection by its label.
[out] a

[I] COc1ccc(CN(C(=O)CCCc2c(Cc3ccc(O)cc3)[nH]c3ccccc23)C2CCC(CC3CCC(N)CC3)CC2)cc1OC (stereo unspecified)
[II] C/C(=C/c1ccccc1)CN(CCCCCN)C(=O)CCCc1c[nH]c2ccccc12
[in] Between item I and item II , which reported Ki is smaller? State your choice using its label.
[out] I

====

- TESTED SYSTEM: UniProtKB P32245
- PROTOCOL DETAILS: Displacement of [125I]NDP-MSH from human recombinant MC4 receptor expressed in Sf9 cells
pKi: −log10 of the molar value.
METRIC NAME: pKi

[1] NCCCCCN(Cc1ccccc1)C(=O)CCCc1c(Cc2ccc(O)cc2)[nH]c2ccccc12
[2] NCCCN(Cc1ccc2ccccc2c1)C(=O)CCCc1c[nH]c2ccccc12
[in] # return whichever of 1 and 2 has the smaller pKi Label of pick, please.
[out] 2
(2: 4.72, 1: 5.30)

[A] NCCCN(C/C(Cl)=C/c1ccccc1)C(=O)CCCc1c[nH]c2ccccc12
[B] COc1ccc(CN(C(=O)CCCc2c[nH]c3ccccc23)C2CCC(CC3CCC(N)CC3)CC2)cc1OC (configuration not stated)
[in] Of A and B , whose reported pKi is the larger number? # respond with the chosen item's label
[out] B
(B: 5.43, A: 5.15)

====

- TESTED SYSTEM: Melanocortin receptor 3 (Homo sapiens)
- Sequence (P41968 whole entry): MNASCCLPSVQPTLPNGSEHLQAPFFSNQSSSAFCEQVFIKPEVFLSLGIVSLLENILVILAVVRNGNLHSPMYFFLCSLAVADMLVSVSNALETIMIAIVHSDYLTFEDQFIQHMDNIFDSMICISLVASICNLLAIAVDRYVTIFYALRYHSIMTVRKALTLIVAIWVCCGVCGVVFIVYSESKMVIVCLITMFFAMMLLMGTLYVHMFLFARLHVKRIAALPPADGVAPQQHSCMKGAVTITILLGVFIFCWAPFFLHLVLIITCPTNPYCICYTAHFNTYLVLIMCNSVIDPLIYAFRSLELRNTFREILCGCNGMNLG
- PROTOCOL DETAILS: Displacement of [125I]NDP-MSH from human recombinant MC3 receptor expressed in Sf9 cells
pKi: −log10 of the molar value.
METRIC NAME: pKi

Solved cases below.
MOLECULE | NUMERIC VALUE
NC1CCC(CC2CCC(N(Cc3ccncc3)C(=O)CCCc3c[nH]c4ccccc34)CC2)CC1 (stereo in doubt; form 2) | 3.76
NC1CCCC(NC(=O)NC2CCCC(N(Cc3ccccc3)C(=O)CCCc3c[nH]c4ccccc34)C2)C1 (configuration not stated) | 4.24

[1] Cc1ccc(CN(C(=O)CCCc2c[nH]c3ccccc23)C2CCC(CC3CCC(N)CC3)CC2)cc1 (configuration not stated)
[2] NC1CCC(CC2CCC(N(Cc3c(Cl)cccc3Cl)C(=O)CCCc3c(Cc4ccc(O)cc4)[nH]c4ccccc34)CC2)CC1 (configuration not stated)
[in] Kindly identify which of 1 and 2 has the larger recorded pKi value. Use the label to indicate which entry you chose.
[out] 2

[A] CC(c1ccc(C(F)(F)F)cc1)N(CCCCCN)C(=O)Cc1c[nH]c2ccccc12 (configuration not stated)
[B] NC1CCC(CC2CCC(N(Cc3ccccc3F)C(=O)CCCc3c(Cc4ccc(O)cc4)[nH]c4ccccc34)CC2)CC1 (configuration not stated)
[C] NCCCN(CCCc1ccccc1)C(=O)Cc1c[nH]c2ccccc12
[D] NC1CCC(CC2CCC(N(Cc3ccccc3Cl)C(=O)CCCc3c[nH]c4ccccc34)CC2)CC1 (configuration not stated)
[in] hey, can you rank those molecules up there by pKi? biggest number first please Your task in answering is to list the labels in the requested order.
[out] C, A, D, B

====

- TESTED SYSTEM: Melanocortin receptor 4 (Homo sapiens, UniProt P32245)
- Sequence (P32245 whole entry): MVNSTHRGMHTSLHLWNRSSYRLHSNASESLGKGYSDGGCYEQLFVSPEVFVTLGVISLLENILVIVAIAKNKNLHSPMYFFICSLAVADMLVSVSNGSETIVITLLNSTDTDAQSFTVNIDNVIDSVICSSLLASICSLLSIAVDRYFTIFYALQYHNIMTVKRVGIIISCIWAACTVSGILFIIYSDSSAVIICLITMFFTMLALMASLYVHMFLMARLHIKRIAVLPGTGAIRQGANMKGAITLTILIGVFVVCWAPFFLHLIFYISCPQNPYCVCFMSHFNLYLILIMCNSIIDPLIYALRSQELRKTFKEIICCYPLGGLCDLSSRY
- PROTOCOL DETAILS: Displacement of [125I]NDP-MSH from human recombinant MC4 receptor expressed in Sf9 cells
METRIC NAME: Ki (µM)

Below are worked cases with known answers.
COMPOUND | VALUE UNITS | Ki
C/C(=C/c1ccccc1)CN(CCCCCN)C(=O)CCCc1c[nH]c2ccccc12 | µM | 4.7
NCCCN(Cc1ccccc1)C(=O)CCCc1c[nH]c2ccccc12 | µM | 16
COc1cc(Cl)c(CN(C(=O)CCCc2c[nH]c3ccccc23)C2CCC(CC3CCC(N)CC3)CC2)cc1OC (stereo in doubt; form 2) | µM | 1.5

[1] NCCCCCN(C(=O)Cc1c[nH]c2ccccc12)C1CCCCCC1
[2] NCC1CCCC(CN(Cc2ccccc2)C(=O)CCCc2c[nH]c3ccccc23)C1 (configuration not stated)
[3] NCCCCCN(Cc1ccccc1)C(=O)[C@H](N)Cc1ccc([N+](=O)[O-])cc1
[4] NC1CCC(CC2CCC(N(C/C=C/c3ccccc3)C(=O)CCCc3c[nH]c4ccccc34)CC2)CC1 (configuration not stated)
[in] Which order do these items take when sorted by rising Ki? List them. As an answer, provide the labels arranged in the order called for.
[out] 2, 4, 1, 3

====

- TESTED SYSTEM: Melanocortin receptor 4 (Homo sapiens)
- PROTOCOL DETAILS: Displacement of [125I]NDP-MSH from human recombinant MC4 receptor expressed in Sf9 cells
METRIC NAME: Ki (µM)

MOLECULE | VALUE UNITS | Ki
NC1CCC(CC2CCC(N(C/C(Cl)=C/c3ccccc3)C(=O)CCCc3c[nH]c4ccccc34)CC2)CC1 (stereo in doubt; form 4) | µM | 5.6
C=C(Br)CN(C(=O)CCCc1c[nH]c2ccccc12)C1CCC(CC2CCC(N)CC2)CC1 (stereo in doubt; form 2) | µM | 5.5
NC1CCC(CC2CCC(N(Cc3ccccn3)C(=O)CCCc3c[nH]c4ccccc34)CC2)CC1 (stereo not drawn) | µM | 5.6
